All figures here come from PubChem BioAssay (NCI).

# System: IGROV1 ovarian
# assay_summary: NCI tumour cell line growth inhibition, 48 h; in the data active = GI50 below about 0.43 µM; inactive = the rest
Labels: active, inactive

* Cc1cc(-c2ccco2)cc(C)c1/C=C/c1cncc(-c2nn[nH]n2)c1 | inactive
* CCOc1cc(/C=C/C(=O)CC(=O)/C=C/c2ccc(OC(=O)CNCCN(CC)CC)c(OCC)c2)ccc1OC(=O)CNCCN(CC)CC | inactive
* CC(=O)OC1COC(Oc2c(C)c3c4c(c2O)[C@@H](C)CC[C@@H]4[C@@H](C)C[C@H]3C=C(C)C)C(O)C1O (stereo partly specified) | inactive
* CCc1ccc(C2=NN(c3ccc(S(C)(=O)=O)cc3)C(=O)CC2)cc1 | inactive
* Nc1n[nH]c2ccc([C@@H]3Nc4c(F)cc5[nH]ncc5c4[C@H]4C5CCC(C5)[C@@H]34)cc12 (stereo partly specified) | active
* CC(C)C/C(=N\NC(=O)c1ccncc1)c1cc(Cl)ccc1O | active
* COc1cc2c3c(n(CCCN4CCSCC4)c(=O)c2cc1OC)-c1cc2c(cc1C3=O)OCO2 | inactive
* O=C(/C=C/c1cccc(Oc2ccc(Cl)cc2)c1)c1ccccc1 | inactive
* O=C(Nc1ccc(Br)cc1)Nc1cccc(Br)c1 | inactive
* CN1CCOCCOCCOc2ccccc2NC(=O)c2nc(cnc2N)-c2ccc(cc2)S1(=O)=O | active
* CCN(CCNc1ccc(C)c2sc3cc(Cl)ccc3c(=O)c12)CC(C)(C)O | inactive
* COc1cc(OC)c(/C=C/C(=O)c2c(N)cc(OC)cc2OC)c(OC)c1 | inactive
* CN(c1ccc(NC(=O)NCCN2CCOCC2)cc1)c1ccnc(Nc2ccc(CS(C)(=O)=O)cc2)n1 | inactive
* CCOC(=O)C1=C(C)N(Cc2ccc(Cl)cc2Cl)[C@]2(C#N)C(O)=C(Cl)C(Cl)=C(O)[C@]12C#N | inactive
* CCc1c(C#N)c(SC(C(N)=O)c2ccccc2)nc(N2CCC(N)CC2)c1C#N (stereo unspecified) | inactive
* Cc1nn2c(-c3nc4cc(Cl)c(Cl)cc4[nH]3)c(-c3ccc(F)cc3)nc2s1 | inactive

* * *

# System: MOLT-4 leukemia
# assay_summary: NCI tumour cell line growth inhibition, 48 h
Listed molecules paired with reported TGI
observable: TGI

• O=C(/C=C/c1cccs1)c1ccc([N+](=O)[O-])cc1 = > 100 µM
• Nc1nc(-c2ccccc2)cc(-c2cc(Cl)ccc2O)n1 = > 100 µM
• Cn1c(CC(O)c2nc3ccccc3n2C)nc2ccccc21 (stereo not given) = > 27.9 µM
• CC(=O)c1sc2c(c1O)c(=O)n(-c1ccccc1)c(=S)n2-c1ccccc1 = > 100 µM
• CC1=C2CC(C)(C)CC(=O)C2(C)CCC1=O (stereo not given) = > 100 µM
• CCOc1cc2c(cc1O)CC[C@@H]1[C@@H]2CC[C@]2(C)[C@@H](O)CC[C@@H]12 = 11.6 µM
• CC(=O)N1c2ccccc2[C@H]2CCc3c([nH]c4ccccc34)[C@H]21 = 53.1 µM
• COc1cccc(/C=N/[N-]C(N)=O)c1[O-].[OH3+].[Pd+2] = > 100 µM
• Cc1ccc(C(=O)N2C/C(=C/c3ccccc3)C(=O)/C(=C/c3ccccc3)C2)cc1 = > 100 µM
• CCN(CC)CCCNc1c2ccc(Cl)cc2nc2ccc(OC)cc12 = 2.91 µM
• Cn1c(=O)n2n(c1=O)C(S(=O)c1ccccc1)C2 (stereo not given) = > 100 µM
• C=CC1(O)CCCC=C1COCc1ccccc1 (stereo not given) = 66.7 µM
• Nc1c(-c2nc3ccccc3s2)[n+]([O-])c2ccccc2[n+]1[O-] = > 100 µM
• Nc1ccn([C@@H]2S[C@H](CO)[C@@H](O)[C@@H]2F)c(=O)n1 = > 100 µM
• O=c1c2cccc3cccc(c4n1CCCN=4)c32 = > 100 µM
